FYI, the data here is from ChEMBL document CHEMBL4513216.

Experiment description: Toxicity liver stage against HepG2, at 10uM
Format: cell-based
Set-up: test concentration 10 uM, cell line HepG2-A16-CD81EGFP
Condition notes: human, HepG2-A16-CD81EGFP cells; read-out: INHIBITION
Recorded measurements of cytotoxicity at 10 µM, one per entry
Quantity kind: cytotoxicity at 10 µM (%)

[[record]]
molecule = "CC(C#N)CNC(=O)Nc1ccc(Br)cc1 (configuration not stated)"
units_of_measure = "%"
result_number = 1.44

[[record]]
molecule = "Cc1cc(N(Cc2cccnc2)C2CC2)n2nc(C(F)(F)F)nc2n1"
units_of_measure = "%"
result_number = -1.95

[[record]]
molecule = "c1cc(-c2n[nH]cc2-c2ccnc(N3CCCCCC3)n2)ccn1"
units_of_measure = "%"
result_number = -0.252

[[record]]
molecule = "Cc1noc(C)c1-c1cccc(CC2CCN(C(=O)c3cc[nH]n3)C2)n1 (configuration not stated)"
units_of_measure = "%"
result_number = 2.31

[[record]]
molecule = "CNc1cncc(C2CCCN2Cc2ccccc2OCC(=O)O)n1 (configuration not stated)"
units_of_measure = "%"
result_number = -0.105

[[record]]
molecule = "CCCOc1cc(CNC(=O)Nc2ccc(C)cc2)ccn1"
units_of_measure = "%"
result_number = 2.99

[[record]]
molecule = "Cc1ccc(N2CCCc3sc(C(=O)NCc4ccncc4)nc32)nn1"
units_of_measure = "%"
result_number = 14.6

[[record]]
molecule = "c1ccc(C(OCCNC2CCc3ncnn3C2)c2ccccc2)cc1 (configuration not stated)"
units_of_measure = "%"
result_number = -18.4

[[record]]
molecule = "CCNc1cc2c(nn1)CCN(C(=O)c1cccnc1N(C)C)C2"
units_of_measure = "%"
result_number = -13.4

[[record]]
molecule = "Nc1cccnc1N1CCCCCC1"
units_of_measure = "%"
result_number = 4.45

[[record]]
molecule = "CC(COc1ccc(F)cc1F)NC(=O)NCCN1CCOCC1 (configuration not stated)"
units_of_measure = "%"
result_number = -10.9

[[record]]
molecule = "COC(=O)CCSc1nncn1-c1ccc(OC)nc1"
units_of_measure = "%"
result_number = -2.09

[[record]]
molecule = "CC(NC(=O)NCCCN(C)S(C)(=O)=O)c1ccc(F)cc1 (configuration not stated)"
units_of_measure = "%"
result_number = -21.9

[[record]]
molecule = "CCNC(=O)NC(C)(C)C(=O)NCc1cccc(N2CC=CC2)c1"
units_of_measure = "%"
result_number = 7.35

[[record]]
molecule = "O=C(c1nc(=O)[nH][nH]1)N1CCCCCC1"
units_of_measure = "%"
result_number = 14.1

[[record]]
molecule = "CCC(C(=O)NCCc1nc(C)cc(C(F)(F)F)n1)n1cccn1 (configuration not stated)"
units_of_measure = "%"
result_number = -9.77

[[record]]
molecule = "CN1CCCc2cc(-c3cncn3CCNC3CCS(=O)(=O)C3)ccc21 (configuration not stated)"
units_of_measure = "%"
result_number = -2.42

[[record]]
molecule = "Cc1cc(C)n(-c2ccc(N3CCCSCC3)nc2)n1"
units_of_measure = "%"
result_number = -2.08

[[record]]
molecule = "O=C(c1csc(-c2cnccn2)n1)N1CCCC1Cn1cccn1 (configuration not stated)"
units_of_measure = "%"
result_number = -7.35

[[record]]
molecule = "CCNc1ncc(CN2C[C@@H]3CC[C@H]2CN(C(=O)C2CCC2)C3)cn1"
units_of_measure = "%"
result_number = 6.29

[[record]]
molecule = "O=C1CCC[C@]2(CN(S(=O)(=O)N3CCOCC3)C[C@H]2c2cccnc2)N1"
units_of_measure = "%"
result_number = -0.701

[[record]]
molecule = "Cc1c(Cl)cccc1S(=O)(=O)NCC(O)c1cccn1C (configuration not stated)"
units_of_measure = "%"
result_number = -5.15

[[record]]
molecule = "Cc1noc(C)c1C(=O)NCCN1CCN(c2ccccc2)CC1"
units_of_measure = "%"
result_number = -10.8

[[record]]
molecule = "Cn1ncnc1-c1ccnc(NCc2ccccn2)n1"
units_of_measure = "%"
result_number = -2.46

[[record]]
molecule = "O=C(CCCc1ccc(Cl)cc1)N1CCC(c2nnc[nH]2)CC1"
units_of_measure = "%"
result_number = 18.3

[[record]]
molecule = "Cc1nn(C)c(Cl)c1CN1CCN(c2nccs2)C(C)C1 (configuration not stated)"
units_of_measure = "%"
result_number = -27.1

[[record]]
molecule = "Cc1ccc(NC(=O)CN2CCC(OCC3CCCO3)CC2)c(C)c1 (configuration not stated)"
units_of_measure = "%"
result_number = -1.7

[[record]]
molecule = "CN(C)C(=O)N1C[C@H]2CCC[C@@]2(COc2ccccn2)C1"
units_of_measure = "%"
result_number = 3.24

[[record]]
molecule = "Cc1ccc(C)c(Oc2cc(-n3nc(C)c(C#N)c3N)nc(C)n2)c1"
units_of_measure = "%"
result_number = 69.5

[[record]]
molecule = "Cn1cc(CN2CCOC(c3nccnc3-c3cccc(F)c3)C2)cn1 (configuration not stated)"
units_of_measure = "%"
result_number = 8.12

[[record]]
molecule = "Cc1ccc(-n2nc3n(c2=O)CCN(C(=O)c2ccc(Cl)cc2)C3)cc1"
units_of_measure = "%"
result_number = 6.78

[[record]]
molecule = "O=C(c1cccc(C2CCNC2)c1)N1CCC(N2CCC(O)CC2)CC1 (configuration not stated)"
units_of_measure = "%"
result_number = 2.18

[[record]]
molecule = "c1ccc(CO[C@H]2CC[C@H]3[C@H]2OCCN3CCN2CCCCC2)nc1"
units_of_measure = "%"
result_number = -7.16

[[record]]
molecule = "Cc1nc(COC[C@@H]2CC[C@H]3[C@H](CCN3C(=O)C3CC3)O2)cs1"
units_of_measure = "%"
result_number = -73.9

[[record]]
molecule = "O=C(Nc1ccccc1)C1=NOC2(CCCNC2)C1 (configuration not stated)"
units_of_measure = "%"
result_number = 1.02

[[record]]
molecule = "O=C1CSCN1CC(=O)N1CCCC1c1nc2ccccc2s1 (configuration not stated)"
units_of_measure = "%"
result_number = -12.7

[[record]]
molecule = "CN(C)S(=O)(=O)N1CCC(c2ccncc2)CC1"
units_of_measure = "%"
result_number = -27.6

[[record]]
molecule = "N#Cc1cccc(OCCN2CCCC2C(=O)NCC(F)(F)F)c1 (configuration not stated)"
units_of_measure = "%"
result_number = -5.88

[[record]]
molecule = "COc1ncccc1C(=O)NC1(c2cccc(F)c2)CCOCC1"
units_of_measure = "%"
result_number = 10.9

[[record]]
molecule = "O=S(=O)(c1ccccc1)N1C[C@@H]2COC[C@]2(CN2CCOCC2)C1"
units_of_measure = "%"
result_number = 2.32

[[record]]
molecule = "CNC(=O)[C@H]1C[C@H]2CN(Cc3ccc(C)cc3)C[C@@H]1O2"
units_of_measure = "%"
result_number = 1.82

[[record]]
molecule = "CCc1nc(CCNC(=O)NC2CCSCC2)cs1"
units_of_measure = "%"
result_number = -5.55

[[record]]
molecule = "CNC(=O)c1cc2c(nc1N(C)C)CCN(S(=O)(=O)C1CC1)CC2"
units_of_measure = "%"
result_number = 0.118

[[record]]
molecule = "CCc1c(C)n(CCC#N)c2nc3ccccc3n2c1=O"
units_of_measure = "%"
result_number = 2.73

[[record]]
molecule = "O=c1[nH]c2cn(-c3ccccc3)c(=O)n2[nH]1"
units_of_measure = "%"
result_number = -11.5

[[record]]
molecule = "O=C(CC1CC1)NCc1cc(=O)n2c(n1)CN(Cc1ccoc1)CCC2"
units_of_measure = "%"
result_number = -20.6

[[record]]
molecule = "Cc1cc(NCc2csc(-c3ccsc3)n2)no1"
units_of_measure = "%"
result_number = -0.912


====

Experiment description: Toxicity liver stage against HepG2, at 10uM
Type: cell-based
Design: test concentration 10 uM, cell line HepG2-A16-CD81EGFP
Condition notes: human, HepG2-A16-CD81EGFP cells; read-out: INHIBITION
Recorded measurements of cytotoxicity at 10 µM, one per entry
Quantity kind: cytotoxicity at 10 µM

[[record]]
compound = "O=C(Cc1cnc(-c2c(Cl)cccc2Cl)s1)N1CCOCC1"
result = "3.29%"

[[record]]
compound = "O=C(COC1CCCC1)N1C[C@@H]2CN(Cc3ccoc3)CCO[C@@H]2C1"
result = "4.65%"

[[record]]
compound = "Cc1n[nH]c(C)c1C1CCCN1C(=O)NCC(=O)NC(C)(C)C (stereo not drawn)"
result = "-11.7%"

[[record]]
compound = "O=C(O)C1(n2ccc(-c3ccco3)n2)CCN(Cc2cccnc2)CC1"
result = "-131%"

[[record]]
compound = "CCn1cc(CN2CCC(C3CCN(C)CC3)CC2)cc1C#N"
result = "-0.0399%"

[[record]]
compound = "CN(Cc1cc(Br)cn1C)C(=O)Cc1cccnc1"
result = "-4.18%"

[[record]]
compound = "CC(C)c1nc(C2CCCN(C(=O)c3ccc4nncn4c3)C2)no1 (stereo not drawn)"
result = "-4.38%"

[[record]]
compound = "COCC(=O)N1CCC2(CC1)CC(N1CCN(C)CC1)CO2 (stereo not drawn)"
result = "-1.25%"

[[record]]
compound = "Cc1cccc(NC2CCN(C(=O)Nc3ccccn3)CC2)n1"
result = "-7.92%"

[[record]]
compound = "Cc1cccc(C(=O)N2CC[C@@H]3CN(c4ncccn4)CCO[C@@H]3C2)c1"
result = "-71.6%"

[[record]]
compound = "Cc1ccc(CN2CC[C@@H](NC(=O)c3cccnc3)[C@H](O)C2)o1"
result = "2.52%"

[[record]]
compound = "CCC=C(C)C(=O)N1CSCC1C(=O)NC1=NCCS1 (stereo not drawn)"
result = "11.8%"

[[record]]
compound = "CN(CCc1ccccc1)Cc1nc(-c2cnccn2)no1"
result = "-0.911%"

[[record]]
compound = "N[C@H]1CN(C(=O)c2ccc(CO)cc2)C[C@@H]1C1CC1"
result = "2.56%"

[[record]]
compound = "CCn1cc(NC(=O)C(C)n2ncc(Cl)c2C)c(C(=O)OC)n1 (stereo not drawn)"
result = "7.19%"

[[record]]
compound = "Cc1ncc(-c2ccnc(N3CCCCC3)n2)c(=O)[nH]1"
result = "7.53%"

[[record]]
compound = "COc1ccc(-c2nc(C#N)c(N(C)C)o2)cc1OC"
result = "-4.91%"

[[record]]
compound = "CN(CCNC(=O)N1CCN(Cc2ccon2)CC1)c1ccccc1"
result = "22.2%"

[[record]]
compound = "c1cncc(CN(Cc2ccc(-n3ccnc3)cc2)CC2CCCO2)c1 (stereo not drawn)"
result = "-0.242%"

[[record]]
compound = "CS(=O)(=O)Nc1ccn(Cc2ccc(Cl)cc2)n1"
result = "6.44%"

[[record]]
compound = "CSCCCN1C(=O)CC[C@H]2CN(Cc3ncc[nH]3)CC[C@H]21"
result = "7.4%"

[[record]]
compound = "CS(=O)(=O)NCc1cnc2n1CCN(Cc1ccco1)CC2"
result = "-4.31%"

[[record]]
compound = "CN1CCCC(CCC(=O)N2CCc3onc(C(=O)N(C)C)c3C2)C1 (stereo not drawn)"
result = "-11%"

